Biological target: UniProt O14786
Sequence (O14786 whole entry): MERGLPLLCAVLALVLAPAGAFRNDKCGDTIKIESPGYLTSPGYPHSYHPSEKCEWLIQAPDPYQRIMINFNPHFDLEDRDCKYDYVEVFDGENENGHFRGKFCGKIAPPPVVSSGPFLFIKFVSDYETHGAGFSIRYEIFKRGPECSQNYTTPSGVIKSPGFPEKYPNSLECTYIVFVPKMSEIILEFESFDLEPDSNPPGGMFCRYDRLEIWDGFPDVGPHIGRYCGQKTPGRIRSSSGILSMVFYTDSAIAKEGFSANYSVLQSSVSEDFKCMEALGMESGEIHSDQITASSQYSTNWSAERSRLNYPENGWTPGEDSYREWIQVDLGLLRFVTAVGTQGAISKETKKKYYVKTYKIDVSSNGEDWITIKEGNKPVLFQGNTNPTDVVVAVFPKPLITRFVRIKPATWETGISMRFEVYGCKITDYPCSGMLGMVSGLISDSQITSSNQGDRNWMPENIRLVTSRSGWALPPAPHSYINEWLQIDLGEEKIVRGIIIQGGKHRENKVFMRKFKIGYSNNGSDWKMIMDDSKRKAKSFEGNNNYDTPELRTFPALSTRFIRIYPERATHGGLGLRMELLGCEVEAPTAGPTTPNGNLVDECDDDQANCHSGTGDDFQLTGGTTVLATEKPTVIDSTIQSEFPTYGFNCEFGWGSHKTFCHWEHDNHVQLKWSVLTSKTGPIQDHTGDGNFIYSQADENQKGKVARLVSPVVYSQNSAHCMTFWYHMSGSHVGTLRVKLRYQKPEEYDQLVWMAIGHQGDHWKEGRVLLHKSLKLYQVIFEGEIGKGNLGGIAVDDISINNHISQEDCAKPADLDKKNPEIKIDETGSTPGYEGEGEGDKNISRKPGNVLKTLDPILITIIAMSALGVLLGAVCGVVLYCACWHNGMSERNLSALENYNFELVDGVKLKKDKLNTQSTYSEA
Assay: Inhibition of VEGF165-NRP1 interaction by ELISA
For each entry below, report its pIC50 value.
One number for each entry, as −log10 of the molar value.

Example entries and their recorded answers appear below.
N#Cc1c(-c2ccccc2)c(NCC(=O)NCc2ccco2)n2c(Cl)cccc12 : 4.72
CN(CCNc1c(-c2ccccc2)c(C#N)c2cccc(Cl)n12)Cc1ccccc1 : 5.40
Cc1cnc(-c2c(C#N)c3cccc(Cl)n3c2NCCc2ccccc2)s1 : 4.66

Hi there! I need pIC50 for each item below, if you can.
1. N#Cc1c(-c2ccccc2)c(NCCc2ccccc2)n2c(Cl)cccc12
2. N#Cc1c(-c2ccccc2)c(NCc2ccc(Cl)c(Cl)c2)n2c(Cl)cccc12

[5.70, 4.89]

Hi there! I need pIC50 for each item below, if you can.
1. CN(C)CCCNc1c(-c2ccccc2)c(C#N)c2cccc(Cl)n12
2. CN(C)c1ccc(Nc2c(-c3ccccc3)c(C#N)c3cccc(Cl)n23)cc1
3. N#Cc1c(-c2cccc(Cl)c2)c(NCCc2ccccc2)n2c(Cl)cccc12
4. N#Cc1c(-c2ccc(F)cc2)c(NCCc2ccccc2)n2c(Cl)cccc12

1: 4.21; 2: 4.33; 3: 5.52; 4: 5.30

Report pIC50 for N#Cc1c(-c2cccc(S)c2)c(NCCc2ccccc2)n2c(Cl)cccc12 tested on UniProt O14786. 5.22
